Test system: M19-MEL melanoma
Assay Overview: NCI tumour cell line growth inhibition, 48 h

Molecule | TGI
O/N=C/c1cc2c(cc1Br)OCO2 | > 100 µM
CCC(CC)n1cc(C(=O)NC(=O)NCCCCCOC(=O)CCCCCCCCCCC(=O)OCCCCCNC(=O)NC(=O)c2cn(C(CC)CC)c(=O)[nH]c2=O)c(=O)[nH]c1=O | > 100 µM
O=C1C=C[C@@]23C[C@@H](Nc4c(O)c5c6c(c42)=NCCC=6C=N5)SC3=C1 | 3.24 µM
O=c1c(Sc2c(O)c3ccccc3c3ccccc3c2=O)c(O)c2ccccc2c2ccccc12 | > 100 µM
O=C(O)CCSCCCN1C(=O)c2ccccc2C1=O | > 100 µM
O=C(c1ccccc1)[C@H]1Nc2ccc(Cl)cc2[C@H]2OCCC[C@@H]12 | 49.1 µM
COc1ccc(C2C(=O)C(Cl)N2Nc2nc(C)cc(=O)[nH]2)cc1OC (stereo unspecified) | > 100 µM
O=C1OC(CC(=O)c2ccc(Cl)cc2Cl)C(Cl)=C1Cl (stereo unspecified) | 48.8 µM
NC(=O)NO | > 2450 µM
CC1CC2C(=O)N(c3ccccc3)C(=O)C2c2c1c1ccccc1n2Cc1ccccc1 (stereo unspecified) | > 100 µM
Nc1ccn(CCO)c(=O)n1 | > 100 µM
COC(=O)C1=C(C(=O)OC)C2C(C)=CC(C)=CN2C(C#N)=C(SC)S1 (stereo unspecified) | 33.8 µM
Cc1cc(NC(=O)NC(=O)c2ccccc2N)ccc1Oc1ncc(Br)cn1 | > 100 µM
Cc1cccc(NC(=O)c2cc3cc(N=Nc4ccccc4Cl)ccc3oc2=O)c1 | > 100 µM
CCOC(=O)C1=C(NNC(=O)Cc2ccccc2)CSC1=Nc1ccccc1 | > 100 µM
O=c1c2cc(Br)ccc2nc(-c2ccccc2Cl)n1NCC1(O)OCC(O)C(O)C1O (stereo unspecified) | > 100 µM
N#C/C(=C1\NN=C(N)C(c2ccc(Cl)cc2)=C1O)c1ccc(Cl)cc1 | > 100 µM
CCCCCCCCCCC(O)[C@H]1CCC(C2CC[C@H]([C@H](O)CCCCCCCCCCC(O)CC3=CC(C)OC3=O)O2)O1 (stereo partly specified) | 8.92 µM
OCC(O)C(OC1OC(CO)C(O)C(O)C1O)c1nn(-c2ccccc2)c2nc3cc(Cl)c(Cl)cc3cc12 (stereo unspecified) | > 100 µM
c1ccc(C(c2ccccc2)[P+](c2ccccc2)(c2ccccc2)c2ccccc2)cc1 | 9.69 µM
C=CCN(N=O)C(=O)N(CCCC(NC(C)=O)C(=O)NCc1ccccc1)Cc1ccccc1 (stereo unspecified) | > 100 µM

====

# Lookup of reported TGI keyed by entry
Tested on: COLO 205 colon
Assay Overview: NCI tumour cell line growth inhibition, 48 h
Assay Endpoint: TGI

Compound | Observed
Cc1cccc(NC(=O)c2cc3cc(N=Nc4ccccc4Cl)ccc3oc2=O)c1 | > 100 µM
Cc1ccc(S(=O)(=O)NNC(=O)c2sc(-c3nc(C)c(C(=O)NNS(=O)(=O)c4ccc(C)cc4)s3)nc2C)cc1 | > 100 µM
CCN(CCCN(CC)C(=O)Nc1ccccc1)C(=O)Nc1ccccc1 | > 100 µM
CCc1cccc2c3c(sc12)C(c1ccc(Cl)cc1)C(C#N)=C(N)O3 (stereo not given) | 6.27 µM
O=C(c1ccco1)n1c2ccc(Br)cc2c2nc3ccccc3nc21 | > 100 µM

====

Test system: NCI-H23 lung
Assay Overview: NCI tumour cell line growth inhibition, 48 h; in the data active = GI50 below about 0.43 µM; inactive = the rest
Labels: T for active, F for inactive

Compound | System Name | Category
Cn1c(=O)c(Oc2ccc(F)cc2F)cc2cnc(NC(CO)CO)nc21 | NCI-H23 lung | F
COc1cc(C(O)c2nc3ccccc3s2)cc(OC)c1OC (stereo unspecified) | NCI-H23 lung | F
C=CCNCCCN1C(=O)c2ccc3c4c(ccc(c24)C1=O)C(=O)N(CCCNCC=C)C3=O | NCI-H23 lung | T
CS(=O)(=O)c1ccc(-c2cnc(N)c(C(=O)Nc3ccccc3)n2)cc1 | NCI-H23 lung | F
CC(C)(O)C1CCC(Nc2ccc3ncc(-c4cccc(C(F)(F)F)c4)n3n2)CC1 (stereo unspecified) | NCI-H23 lung | F
COC(=O)c1cc(-c2cc(OC)c(OC)c(OC)c2)[nH]c1N/N=C/c1c(Cl)cccc1Cl | NCI-H23 lung | F

====

System: ACHN renal
Assay Overview: NCI tumour cell line growth inhibition, 48 h
Measured TGI, listed per entry for reference.

Compound | TGI
NC1CC(N)c2c(Br)sc(Br)c21 (stereo unspecified) | > 100 µM
CC(=O)OC1COC(n2nc(/C=C/c3ccc(Cl)cc3)c(=O)n(/N=C/c3ccccc3)c2=S)C(OC(C)=O)C1OC(C)=O (stereo unspecified) | > 100 µM
Cc1cccc2c(=O)c3c(O)cc(O)cc3[nH]c12 | > 10 µM
CC(=O)Nc1ccccc1C=C1c2ccccc2-c2ccccc21 | > 100 µM
C/C(=N\Nc1ccccc1Br)c1cccc(/C(C)=N/Nc2ccccc2Br)n1 | > 100 µM
COc1c(OC)c(N)c2cc(C)c(=O)c(C)cc2c1N | > 100 µM
COc1ccn2c(C(C)=O)cc(C(=O)c3ccc4c(c3)Sc3ccccc3N4)c2c1 | > 100 µM
Cc1cccc(NC(=O)c2cc3cc(N=Nc4ccccc4Cl)ccc3oc2=O)c1 | > 100 µM
Cc1nc(Nc2ccc(F)cc2)c2sc(=S)n(-c3ccc(F)cc3)c2n1 | 27 µM
CC(/C(=N/NC(=O)C(N)=O)c1c(Cl)ccc(Cl)c1O)C1(O)C(=O)Nc2ccccc21 (stereo unspecified) | > 100 µM
O=c1[nH]/c(=C/c2ccc(OCc3ccccc3)cn2)c(=O)[nH]/c1=C/c1ccc(Cl)cc1 | > 100 µM
COC(=O)c1cc(-c2cc(OC)c(OC)c(OC)c2)[nH]c1N/N=C/c1c(Cl)cccc1Cl | 9.17 µM
Nc1ccc(C2NC(=O)Cc3c2ccc2ccccc32)cc1 (stereo unspecified) | > 100 µM
CC1=CCC(OC(=O)C(C)(C)CCC(O)(C(=O)OC2(C(C)C)CCC3(C)OC3C2)C(C)C)(C(C)C)CC1 (stereo unspecified) | 0.311 µM
COc1ccc(C(=O)c2sc(Nc3ccccc3)nc2N)cc1 | > 100 µM
O=C(N/N=C/c1ccc([N+](=O)[O-])cc1)c1cccc2nc3ccccc3nc12 | > 73.8 µM
CCCCCCCCC(=O)N(C)C1C2CN3CCC(O2)C13 (stereo unspecified) | > 100 µM
CC(=O)CCC(=O)C(=[N+]=[N-])S(=O)(=O)c1ccccc1 | > 100 µM
O=C(O)CSCC(=O)O | > 100 µM
CCN(CC)CCC1CCCCN1CC(=O)N1c2ccccc2NC(=O)c2ccccc21 (stereo unspecified) | > 100 µM
C=CC1=C[C@@H]2[C@@H]3O[C@]4(CC[C@H](O4)[C@@H](C)C[C@@H](O)C3=O)C[C@H](O)C3=NCC[C@@]32CC1 | < 0.00333 µM

====

System: HOP-62 NSCLC
Assay Overview: NCI tumour cell line growth inhibition, 48 h; in the data active = GI50 below about 0.43 µM; inactive = the rest
Possible outcomes: yes (active), no (inactive)

Compound | Category
COc1ccc(-c2nnc(SCC(=O)Nc3ccc(/C(C)=N\O)cc3)n2-c2ccccc2)cc1OC | no
COc1ccc(C(=O)/C=C/c2c(C(F)(F)F)nc3sccn23)cc1OC | no
Cc1nc2cnc3cc(F)c(-c4ccc(Oc5ncccn5)cc4Cl)cc3c2n1[C@H]1CCN(C(=O)CO)C[C@@H]1F | no
C=CC(=O)N1CCN(c2nc(OC[C@@H]3CCCN3C)nc3c2CCN(c2cccc4cccc(C)c24)C3)C[C@@H]1CC#N | yes
CN(C)c1ccc(-c2cc(-c3ccc(Nc4nc(Nc5ccccc5)nc(Nc5ccc(Cl)cc5)n4)cc3)nc(N)n2)cc1 | no
CC(C)[C@@]12C[C@@H](OC(=O)COC(=O)/C=C/c3ccccc3)[C@@](C)(O1)[C@@H]1CC[C@@H](C)[C@H]1[C@@H]2OC(=O)/C=C/c1ccccc1 | no
COc1cc(C(O)c2nc3ccccc3s2)cc(OC)c1OC (configuration not stated) | no

====

System: HOP-62 NSCLC
Assay Overview: NCI tumour cell line growth inhibition, 48 h; in the data active = GI50 below about 0.43 µM; inactive = the rest
Classes used: 1 (yes) (active), 0 (no) (inactive)

Compound | Category
O=C1/C(=C/c2ccc([N+](=O)[O-])o2)Oc2ccc(Br)cc21 | 0 (no)
O=Cc1cn(Cc2cccc(Cl)c2)c2ccccc12 | 0 (no)
CN(c1ccc(NC(=O)Nc2ccc(OC(F)(F)F)cc2)cc1)c1ccnc(Nc2cccc(S(N)(=O)=O)c2)n1 | 0 (no)
[C-]#[O+].[C-]#[O+].[C-]#[O+].[C-]#[O+].[Ir].[Ir].[O-]c1ccc2ccccc2c1C=Nc1ccc(N=Cc2c([O-])ccc3ccccc23)cc1 | 0 (no)
CC(C)(O)C1CCC(Nc2ccc3ncc(-c4cccc(C(F)(F)F)c4)n3n2)CC1 (centres undefined) | 0 (no)
Cc1nc2sc(C(=O)Nc3cccc4ccccc34)c(N)c2cc1C(=O)/C=C/c1ccccc1 | 1 (yes)
CCc1cccc2c3c(sc12)C(c1ccc(Cl)cc1)C(C#N)=C(N)O3 (centres undefined) | 0 (no)
COc1ccc(C(=O)COc2cccc(/C=C3\CSc4ccccc4C3=O)c2)cc1 | 0 (no)
O=C1CC(c2ccc3c(c2)OCO3)Nc2cc3c(cc21)OCO3 (centres undefined) | 0 (no)
